Target: human orexin type 1 receptor (hOX1R) (Homo sapiens, UniProt O43613)
Construct: expressed in transfected cells
Sequence (O43613 whole entry): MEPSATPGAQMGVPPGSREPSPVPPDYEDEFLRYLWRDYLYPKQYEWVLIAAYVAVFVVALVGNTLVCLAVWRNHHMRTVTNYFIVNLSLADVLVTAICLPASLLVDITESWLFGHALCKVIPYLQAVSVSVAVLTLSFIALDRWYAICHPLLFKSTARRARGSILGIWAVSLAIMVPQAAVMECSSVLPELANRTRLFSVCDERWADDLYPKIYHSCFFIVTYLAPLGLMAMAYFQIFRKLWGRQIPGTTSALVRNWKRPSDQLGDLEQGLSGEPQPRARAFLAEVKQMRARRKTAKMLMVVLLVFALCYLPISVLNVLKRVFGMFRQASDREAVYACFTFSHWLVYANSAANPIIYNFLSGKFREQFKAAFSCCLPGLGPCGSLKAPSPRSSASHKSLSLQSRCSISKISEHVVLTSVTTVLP
Assay: Measurement of orexin type 1 receptor agonist activity (FLIPR TETRA intracellular Ca2+ fluorescence)
Assay type: cell-based
Settings: CHO cells expressing hOX1R; agonist activity, Ca2+ fluorescence; read-out: hOX1 pEC50 (converted)
Procedure: Stable cell line generation. […] Measurement of orexin type 1 receptor agonist activity. […] The agonist activity of the test peptide was calculated assuming that the fluorescence value of the well added with only the dilution buffer was 0% and the fluorescence value of the well added with 10 nM human orexin A (Tocris) buffer was 100%. […]
Numbered stars: 1 amine (or outer) side, 2 acyl side, 3 side chain; on linkers, the order of the positions; unused ones are H or OH. Square brackets hold non-standard residues; d marks the D form. Peptide text beside a SMILES is read from it. Gly(N-CH2CH2(4-MeOPh)) = COc1ccc(CCNCC(=O)O)cc1; hArg(Et2) = CCN=C(NCC)NCCCC[C@H](N)C(=O)O; Phe(3-Br) = N[C@@H](Cc1cccc(Br)c1)C(=O)O; X6 = O=C(CN(CCc1cccc2ccccc12)[*:1])[*:2]; Gly(NCH2CH2Ph) = O=C(O)CNCCc1ccccc1; PEG6 = NCCOCCOCCOCCOCCOCCOCCC(=O)O; Hyp = O=C(O)[C@@H]1C[C@@H](O)CN1; Aoc(2) = CCCCCC[C@H](N)C(=O)O; NMeL = CN[C@@H](CC(C)C)C(=O)O; Phg = N[C@H](C(=O)O)c1ccccc1
Recorded EC50 for the following compounds

Check out these entries, answers already filled in.
{"columns": ["compound", "EC50"],
 "data": [
  ["CC[C@H](C)[C@H](NC(=O)CNC(=O)[C@@H](NC(=O)[C@H](C)NC(=O)[C@@H]1C[C@@H](O)CN1C(=O)[C@H](CC(N)=O)NC(=O)CN(CCc1cccc2ccccc12)C(=O)[C@@H](N)CCCNC(=N)N)c1ccccc1)C(=O)N[C@@H](CC(C)C)C(=O)N[C@H](C(=O)N[C@@H](Cc1cccc(Br)c1)C(N)=O)[C@@H](C)O [Peptide 16] (H-R[X6]N[Hyp]A[Phg]GILT[Phe(3-Br)]-NH2)", "1 to 10 nM"],
  ["CCCCCC[C@H](NC(=O)[C@@H](NC(=O)[C@H](CC(C)C)NC(=O)[C@@H](NC(=O)CNC(=O)[C@@H](NC(=O)[C@H](C)NC(=O)[C@H](Cc1c[nH]cn1)NC(=O)[C@H](CC(N)=O)NC(=O)CN(CCc1ccc(OC)cc1)C(=O)[C@@H](N)CCCCN/C(=N/CC)NCC)c1ccccc1)[C@@H](C)CC)[C@@H](C)O)C(N)=O [Peptide 18] (H-[hArg(Et2)][Gly(N-CH2CH2(4-MeOPh))]NHA[Phg]GILT[Aoc(2)]-NH2)", "> 10 nM"]
]}

Please report EC50 for the following compound: CCCCCC[C@H](NC(=O)[C@@H](NC(=O)[C@H](CC(C)C)N(C)C(=O)[C@@H](NC(=O)CNC(=O)[C@@H](NC(=O)[C@H](C)NC(=O)[C@@H]1C[C@@H](O)CN1C(=O)[C@H](CC(N)=O)NC(=O)CN(CCc1ccccc1)C(=O)[C@H](CCCNC(=N)N)NC(=O)CCOCCOCCOCCOCCOCCOCCN)c1ccccc1)[C@@H](C)CC)[C@@H](C)O)C(N)=O [Peptide 29] (H-[PEG6]R[Gly(NCH2CH2Ph)]N[Hyp]A[Phg]GI[NMeL]T[Aoc(2)]-NH2)
> 10 nM

====

target: human orexin type 1 receptor (hOX1R) (Homo sapiens, UniProt O43613); construct: expressed in transfected cells; test: Measurement of orexin type 1 receptor agonist activity (FLIPR TETRA intracellular Ca2+ fluorescence); format: cell-based; conditions: CHO cells expressing hOX1R; agonist activity, Ca2+ fluorescence; read-out: hOX1 pEC50 (converted)
Square brackets hold non-standard residues; d marks the D form. Peptide text beside a SMILES is read from it. * marks the point of attachment. Malonyl(2,2-Me2,histaminyl) = CC(C)(C(=O)NCCc1cnc[nH]1)C(=O)*; hArg(Et2) = CCN=C(NCC)NCCCC[C@H](N)C(=O)O; X4 = CN(C)CCOCCOCCOCCOCCOCCOCCC(=O)*; Gly(NCH2CH2Ph) = O=C(O)CNCCc1ccccc1; PEG6 = NCCOCCOCCOCCOCCOCCOCCC(=O)O; Hyp = O=C(O)[C@@H]1C[C@@H](O)CN1; NMeN = CN[C@@H](CC(N)=O)C(=O)O; X5 = COCCOCCOCCOCCOCCOCCC(=O)*; Aoc(2) = CCCCCC[C@H](N)C(=O)O; NMeL = CN[C@@H](CC(C)C)C(=O)O; Phg = N[C@H](C(=O)O)c1ccccc1
Reported EC50 values follow for various compounds

{"columns": ["compound", "observedValue"],
 "data": [
  ["CCCCCC[C@H](NC(=O)[C@@H](NC(=O)[C@H](CC(C)C)N(C)C(=O)[C@@H](NC(=O)CNC(=O)[C@@H](NC(=O)[C@H](C)NC(=O)[C@@H]1C[C@@H](O)CN1C(=O)[C@H](CC(N)=O)N(C)C(=O)CN(CCc1ccccc1)C(=O)[C@H](CCCNC(=N)N)NC(=O)CCOCCOCCOCCOCCOCCOCCN)c1ccccc1)[C@@H](C)CC)[C@@H](C)O)C(N)=O [Peptide 31] (H-[PEG6]R[Gly(NCH2CH2Ph)][NMeN][Hyp]A[Phg]GI[NMeL]T[Aoc(2)]-NH2)", "> 10 nM"],
  ["CCCCCC[C@H](NC(=O)[C@@H](NC(=O)[C@H](CC(C)C)NC(=O)[C@@H](NC(=O)CNC(=O)[C@@H](NC(=O)[C@H](C)NC(=O)[C@@H]1C[C@@H](O)CN1C(=O)[C@H](CC(N)=O)NC(=O)CN(CCc1ccccc1)C(=O)[C@H](CCCNC(=N)N)NC(=O)CCOCCOCCOCCOCCOCCOC)c1ccccc1)[C@@H](C)CC)[C@@H](C)O)C(N)=O [Peptide 22] (X5-R[Gly(NCH2CH2Ph)]N[Hyp]A[Phg]GILT[Aoc(2)]-NH2)", "> 10 nM"],
  ["CCCCCC[C@H](NC(=O)[C@@H](NC(=O)[C@H](CC(C)C)NC(=O)[C@@H](NC(=O)CNC(=O)[C@@H](NC(=O)[C@H](C)NC(=O)[C@@H]1C[C@@H](O)CN1C(=O)[C@H](CC(N)=O)NC(=O)CN(CCc1ccccc1)C(=O)[C@H](CCCNC(=N)N)NC(=O)CCOCCOCCOCCOCCOCCOCCN(C)C)c1ccccc1)[C@@H](C)CC)[C@@H](C)O)C(N)=O [Peptide 2] (X4-R[Gly(NCH2CH2Ph)]N[Hyp]A[Phg]GILT[Aoc(2)]-NH2)", "1 to 10 nM"]
]}

Return EC50 (reported value) for this compound: CCCCCC[C@H](NC(=O)[C@@H](NC(=O)[C@H](CC(C)C)NC(=O)[C@@H](NC(=O)CNC(=O)[C@@H](NC(=O)[C@H](C)NC(=O)[C@@H]1C[C@@H](O)CN1C(=O)[C@H](CC(N)=O)NC(=O)CN(CCc1ccccc1)C(=O)[C@H](CCCCN/C(=N/CC)NCC)NC(=O)C(C)(C)C(=O)NCCc1cnc[nH]1)c1ccccc1)[C@@H](C)CC)[C@@H](C)O)C(N)=O [Peptide 15] ({Malonyl(2,2-Me2,histaminyl)}-[hArg(Et2)][Gly(NCH2CH2Ph)]N[Hyp]A[Phg]GILT[Aoc(2)]-NH2)
> 10 nM

====

Recorded EC50 by entry
Target: human orexin type 1 receptor (hOX1R) (Homo sapiens, UniProt O43613)
Construct: expressed in transfected cells
Experiment: Measurement of orexin type 1 receptor agonist activity (FLIPR TETRA intracellular Ca2+ fluorescence)
Assay type: cell-based
Conditions: CHO cells expressing hOX1R; agonist activity, Ca2+ fluorescence; read-out: hOX1 pEC50 (converted)
Protocol: Stable cell line generation. […] Measurement of orexin type 1 receptor agonist activity. […] The agonist activity of the test peptide was calculated assuming that the fluorescence value of the well added with only the dilution buffer was 0% and the fluorescence value of the well added with 10 nM human orexin A (Tocris) buffer was 100%. […]
Square brackets hold non-standard residues; d marks the D form. Peptide text beside a SMILES is read from it. hArg(Et2) = CCN=C(NCC)NCCCC[C@H](N)C(=O)O; Gly(NCH2CH2Ph) = O=C(O)CNCCc1ccccc1; PEG6 = NCCOCCOCCOCCOCCOCCOCCC(=O)O; Hyp = O=C(O)[C@@H]1C[C@@H](O)CN1; NMeN = CN[C@@H](CC(N)=O)C(=O)O; Aoc(2) = CCCCCC[C@H](N)C(=O)O; Phg = N[C@H](C(=O)O)c1ccccc1

// worked examples, EC50 included
{"columns": ["compound", "recordedMetric", "observedValue"],
 "data": [
  ["CCCCCC[C@H](NC(=O)[C@@H](NC(=O)[C@H](CC(C)C)NC(=O)[C@@H](NC(=O)CNC(=O)[C@@H](NC(=O)[C@H](C)NC(=O)[C@@H]1C[C@@H](O)CN1C(=O)[C@H](CC(N)=O)N(C)C(=O)CN(CCc1ccccc1)C(=O)[C@H](CCCNC(=N)N)NC(=O)CCOCCOCCOCCOCCOCCOCCN)c1ccccc1)[C@@H](C)CC)[C@@H](C)O)C(N)=O [Peptide 6] (H-[PEG6]R[Gly(NCH2CH2Ph)][NMeN][Hyp]A[Phg]GILT[Aoc(2)]-NH2)", "EC50", "> 10 nM"],
  ["CCCCCC[C@H](NC(=O)[C@@H](NC(=O)[C@H](CC(C)C)NC(=O)[C@@H](NC(=O)CNC(=O)[C@@H](NC(=O)[C@H](C)NC(=O)[C@@H]1C[C@@H](O)CN1C(=O)[C@H](CC(N)=O)NC(=O)CN(CCc1ccccc1)C(=O)[C@@H](N)CCCNC(=N)N)c1ccccc1)[C@@H](C)CC)[C@@H](C)O)C(N)=O [Peptide 14] (H-R[Gly(NCH2CH2Ph)]N[Hyp]A[Phg]GILT[Aoc(2)]-NH2; N-terminus assumed)", "EC50", "> 10 nM"]
]}

Turning now to a further compound:
Using known records, supply EC50 for CCCCCC[C@H](NC(=O)[C@@H](NC(=O)[C@H](CC(C)C)NC(=O)[C@@H](NC(=O)CNC(=O)[C@@H](NC(=O)[C@H](C)NC(=O)[C@H](Cc1c[nH]cn1)NC(=O)[C@H](CC(N)=O)NC(=O)CN(CCc1ccccc1)C(=O)[C@@H](N)CCCCNC(=NCC)NCC)c1ccccc1)[C@@H](C)CC)[C@@H](C)O)C(N)=O [Peptide 24] (H-[hArg(Et2)][Gly(NCH2CH2Ph)]NHA[Phg]GILT[Aoc(2)]-NH2; N-terminus assumed)
> 10 nM
